Ref: paper PMC6497270

Biological target: RUNX1 H179K;CBFβ (Homo sapiens;Homo sapiens?, UniProt Q01196;Q13951 1-181;1-141, H179K|)
Sequence (Q01196 1-181 H179K, chain 1 of 2): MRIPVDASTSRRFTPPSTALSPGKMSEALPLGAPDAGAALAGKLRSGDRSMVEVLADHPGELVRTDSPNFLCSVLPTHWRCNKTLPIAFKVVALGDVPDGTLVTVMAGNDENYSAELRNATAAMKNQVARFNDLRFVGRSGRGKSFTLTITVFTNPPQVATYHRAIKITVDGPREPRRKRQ
Sequence (Q13951 1-141, chain 2 of 2): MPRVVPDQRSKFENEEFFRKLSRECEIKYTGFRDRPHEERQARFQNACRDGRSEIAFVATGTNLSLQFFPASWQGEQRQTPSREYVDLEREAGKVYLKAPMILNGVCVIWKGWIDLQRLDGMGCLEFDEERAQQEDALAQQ
Experiment: ITC; RUNX1:CBFβ 1:2; ITC: 20 uM RUNX1 in cell, 100 uM DNA in syringe, 10 mM HEPES-NaOH pH 7.5, 180 mM NaCl, 0.005% Tween 20; temperature stated as 277 K (Methods) but 25 °C (Results)
Settings: protein: recombinant;recombinant; tags: N-terminal His6;; copies: 1;1; (21 bp)
pKd: −log10 of the molar value.
measure: pKd

>>> reported_measurement("CSF-1R promoter 21 bp DNA (dsDNA) DNA 1: CAAACTCTGTGGTTGCCTTGC DNA 2: GCAAGGCAACCACAGAGTTTG")
7.00
